Quick list: IC50 (nM), MMP3/MMP9 gelatin assay per entry.
target: rat proMMP9 (rat, UniProt P50282 20-708); test: cell-based or functional assay
Sequence (P50282 20-708): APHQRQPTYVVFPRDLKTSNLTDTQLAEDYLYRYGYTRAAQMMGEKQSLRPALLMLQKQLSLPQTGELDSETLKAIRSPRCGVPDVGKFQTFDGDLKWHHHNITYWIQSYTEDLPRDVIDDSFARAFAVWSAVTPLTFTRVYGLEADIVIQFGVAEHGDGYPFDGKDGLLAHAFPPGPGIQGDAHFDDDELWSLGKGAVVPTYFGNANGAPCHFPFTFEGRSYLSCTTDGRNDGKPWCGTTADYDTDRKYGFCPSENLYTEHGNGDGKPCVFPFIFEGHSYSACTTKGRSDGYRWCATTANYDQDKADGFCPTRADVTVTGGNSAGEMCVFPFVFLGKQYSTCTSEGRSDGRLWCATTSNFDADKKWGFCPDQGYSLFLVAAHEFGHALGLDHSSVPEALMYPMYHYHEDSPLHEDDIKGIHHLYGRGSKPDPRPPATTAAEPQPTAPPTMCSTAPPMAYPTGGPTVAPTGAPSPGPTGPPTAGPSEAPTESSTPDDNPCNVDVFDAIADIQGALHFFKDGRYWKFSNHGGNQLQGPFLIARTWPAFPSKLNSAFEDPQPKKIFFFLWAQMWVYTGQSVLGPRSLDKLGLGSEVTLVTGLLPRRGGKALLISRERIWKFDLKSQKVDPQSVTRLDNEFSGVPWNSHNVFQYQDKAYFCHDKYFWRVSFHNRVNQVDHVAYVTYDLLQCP
Quick reminder: number only, in nM, skip the unit.

Record excerpt, results attached:
[
  {
    "Binder": "F20-VH-GL1-V1-V9-V14/B03-VL-GL1c (antibody, human IgG4 S228P, V domains shown) VH: EVQLVESGGGLVQPGRSLRLSCAASGFTFNDYPMHWVRQAPGKGLEWVSGISSQSGSVGYAESVKGRFTISRDNAKNSLYLQMNSLRAEDTALYYCARDKIYYGSGSYDFYYYYGIDVWGQGTTVTVSS VL: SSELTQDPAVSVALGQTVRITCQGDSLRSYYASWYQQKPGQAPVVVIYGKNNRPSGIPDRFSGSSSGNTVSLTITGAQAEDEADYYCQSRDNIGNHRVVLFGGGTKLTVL",
    "Measured Result": 8.82
  },
  {
    "Binder": "F20-VH-GL1/B08-VL-GL6c (antibody, human IgG4, V domains shown) VH: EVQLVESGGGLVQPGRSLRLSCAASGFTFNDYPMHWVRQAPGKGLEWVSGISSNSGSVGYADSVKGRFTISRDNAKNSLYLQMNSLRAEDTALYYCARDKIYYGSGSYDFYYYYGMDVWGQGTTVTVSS VL: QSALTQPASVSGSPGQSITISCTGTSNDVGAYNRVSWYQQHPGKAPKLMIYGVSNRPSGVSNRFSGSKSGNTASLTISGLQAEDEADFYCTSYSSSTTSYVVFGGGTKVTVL",
    "Measured Result": 17.4
  }
]

Shift focus to the following entry.
Prompt: Find the recorded IC50 (nM), MMP3/MMP9 gelatin assay belonging to F20-VH-GL1-V4-V9-V14/B08-VL-GL6c (antibody, human IgG4 S228P, V domains shown) VH: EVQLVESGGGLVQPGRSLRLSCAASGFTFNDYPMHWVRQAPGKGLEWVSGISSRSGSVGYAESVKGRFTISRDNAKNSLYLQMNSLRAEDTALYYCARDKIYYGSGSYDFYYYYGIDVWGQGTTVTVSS VL: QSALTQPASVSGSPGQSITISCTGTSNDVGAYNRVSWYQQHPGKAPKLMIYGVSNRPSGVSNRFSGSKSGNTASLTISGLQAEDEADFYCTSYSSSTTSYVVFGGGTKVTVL and report it.
Response: 6.19
